Cited source: the supplement of paper PMC6522484

System: SW480
Experiment: cell viability (CellTiter-Glo) relative to plate median (fraction of plate median); higher = more viable cells
Conditions: 5 µM; treatment time 24 h; reporter: 7TFP
Each item that follows carries a reported cell viability.
Number only, no unit.

COc1ccc(CN(CCN(C)C)c2ncccn2)cc1    1

Input line: State the recorded cell viability for this entry: CCOc1ccc(C(=O)c2ccc(OC)c(O)c2O)cc1
Output line: 1

Input line: And for O=C(Nc1ccc([N+](=O)[O-])cc1Cl)c1cc(Cl)ccc1O ?
Output line: 0.779

Input line: And for CC(C)c1cccc(=O)c(O)c1 ?
Output line: 1.1

Input line: And for C=CCc1ccccc1OCC(O)CNC(C)C (stereo unspecified) ?
Output line: 0.961

Input line: And for COCCc1ccc(OCC(O)CNC(C)C)cc1 (stereo unspecified) ?
Output line: 1.01

Input line: And for CN(C)CCCN1c2ccccc2Sc2ccc(C(F)(F)F)cc21 ?
Output line: 1.04

Input line: And for O=C(OCC(O)CO)c1ccccc1Nc1ccnc2cc(Cl)ccc12 (stereo unspecified) ?
Output line: 1.02

Input line: And for O=c1cc[nH]c(=S)[nH]1 ?
Output line: 0.956

Input line: And for C=C1C(=O)C[C@@H]2[C@@H]3CC[C@@H](C(=O)O)[C@@]12CC3(C)C [Terrecyclic Acid A] ?
Output line: 0.974

Input line: And for CC1CCC(C(C)C)C(O)C1 (stereo unspecified) ?
Output line: 1.02

Input line: And for COc1ccc(OC)c(C(O)CNC(=O)CN)c1 (stereo unspecified) ?
Output line: 1.03

Input line: And for CCCCC(=O)N(Cc1ccc(-c2ccccc2-c2nnn[nH]2)cc1)[C@H](C(=O)O)C(C)C ?
Output line: 1

Input line: And for O=C(O)c1cc(=O)c(O)c2c(O)c(O)c(O)cc2c1 ?
Output line: 1

Input line: And for CC(=O)NCCCCCC(=O)O ?
Output line: 1.03

Input line: And for C=C(C)[C@H]1C(=O)[C@H]2O[C@@]2(C)C(=O)[C@@H](O)[C@H](C(=C)C)CCC2=C[C@H]1OC2=O [bipinnapterolide A] ?
Output line: 1.01

Input line: And for Nc1nc2c(ncn2[C@@H]2O[C@H](CO)[C@@H](O)[C@H]2O)c(=O)[nH]1 [Guanosin] ?
Output line: 0.903

Input line: And for COc1ccc2c(c1OC)C(=O)O[C@@H]2[C@H]1c2c(cc3c(c2OC)OCO3)CCN1C ?
Output line: 0.995

Input line: And for CCC(CCC(C)C1CCC2C3CCC4CC(O)CCC4(C)C3CCC12C)C(C)C (stereo unspecified) ?
Output line: 1.06

Input line: And for CO[C@@]1(NC(=O)C(C(=O)O)c2ccc(O)cc2)C(=O)N2C(C(=O)O)=C(CSc3nnnn3C)CO[C@@H]21 (stereo partly specified) ?
Output line: 1.07

Input line: And for C=CCCCCCCCCCCCc1ccco1 ?
Output line: 1.01

Input line: And for COc1cc(/C=C/C(=O)O)ccc1O ?
Output line: 1.01

Input line: And for CC(C)[C@@H](C)/C=C/[C@@H](C)[C@H]1CC[C@H]2C3=CC=C4C[C@@H](O)CC[C@]4(C)[C@H]3CC[C@]12C ?
Output line: 1.14

Input line: And for C[C@H]1c2cccc(O)c2C(=O)C2=C(O)[C@]3(O)C(=O)C(C(N)=O)=C(O)[C@@H](N(C)C)[C@@H]3[C@@H](O)[C@@H]21 ?
Output line: 0.975
